experiment: gradient 5% acetonitrile 3 min, to 50% in 2 min, to 85% in 15 min, held 3 min, 100 µL/min; details: column: Zorbax Extend-C18 2.1 x 50 mm; eluents: water / acetonitrile, 0.1% formic acid
Classify: fulfilled when RP-LC retention time is strictly less than 700 s; not fulfilled when RP-LC retention time is not.

Check out these entries, answers already filled in.
>>> class_label("Cc1ncc2c(n1)C[C@@H]1CC[C@H]2N1C(=O)c1sccc1C")
"fulfilled"
>>> class_label("COCCCNC(=O)CCc1cn(-c2ccccc2)nc1-c1ccc2c(c1)OCO2")
"not fulfilled"

# check: RP-LC retention time < 700 s for NC(=O)[C@@H]1C[C@H](Oc2cccnc2)CN1C(=O)CCc1nc2ccccc2s1
fulfilled

Consider Cc1ccn2c(NC(=O)CC(C)(C)C)c(-c3ccccc3)nc2c1 . Does its RP-LC retention time lie strictly below 700 s?
fulfilled

====

test: gradient 5% acetonitrile 3 min, to 50% in 2 min, to 85% in 15 min, held 3 min, 100 µL/min; conditions: column: Zorbax Extend-C18 2.1 x 50 mm; eluents: water / acetonitrile, 0.1% formic acid
Each entry gets 0.0 if its RP-LC retention time stays under 900 s, and 1.0 if its RP-LC retention time is 900 s or above.

Use the examples below as a reference point.
>>> class_label("CCc1nc2cc(-c3noc(-c4cccnc4SC)n3)ccc2o1")
1.0
>>> class_label("CCOC(=O)C1=C(C)NC2=C(C(=O)c3ccccc32)C1c1cccc(OC)c1 (stereo unspecified)")
1.0
>>> class_label("CCCCC(=O)Nc1nc(-c2ccc3c(c2)N(C)C(=O)C(C)O3)cs1 (stereo unspecified)")
1.0
>>> class_label("CCN(Cc1ccc(F)cc1)Cc1cc(=O)n2cc(Cl)ccc2n1")
0.0
>>> class_label("CCCS(=O)(=O)c1ccc(N2CCN(c3ccccc3OC)CC2)nn1")
0.0

API: above_or_equal(metric=RP-LC retention time, cutoff=900 s) for item Cc1cccc(NC(=O)c2cc(C(C)C)n3nccc3n2)c1
1.0

Check this compound for RP-LC retention time at or above 900 s: COc1cc(NS(=O)(=O)c2cc3n(c2)CCN(C)C3=O)cc(OC)c1
0.0

Could you please find out whether COc1ccc(-c2nc3cc(C)ccn3c2Nc2ccccc2C)cc1 has RP-LC retention time that meets 900 s or exceeds it?
0.0

Answer whether RP-LC retention time of CCN(CC)C(=O)Cn1c(=O)c2cnc(-c3ccc(C)cc3)nc2n(C)c1=O is greater than or equal to 900 s.
1.0

====

The compounds listed here are annotated with their RP-LC retention time.
test: gradient 5% acetonitrile 3 min, to 50% in 2 min, to 85% in 15 min, held 3 min, 100 µL/min; conditions: column: Zorbax Extend-C18 2.1 x 50 mm; eluents: water / acetonitrile, 0.1% formic acid
Value expressed in s; do not type the unit.

>>> reported("Cc1cccc(N2CCN(CCNC(=O)c3cc4sccc4n3C)CC2)c1C")
778

Quick one: RP-LC retention time of COc1ccc(NC(=O)C2CCN(S(=O)(=O)c3ccc4c(c3)CCCC(=O)N4)CC2)cc1Cl ?
782

Entry CCN(CC)CCCC(C)Nc1nc(/C=C/c2cc(OC)c(OC)cc2Cl)nc2cc(Cl)ccc12 (stereo not drawn) : reported RP-LC retention time = ?
595

====

assay: gradient 5% acetonitrile 3 min, to 50% in 2 min, to 85% in 15 min, held 3 min, 100 µL/min; settings: column: Zorbax Extend-C18 2.1 x 50 mm; eluents: water / acetonitrile, 0.1% formic acid
Reported RP-LC retention time values follow for various compounds
Answer format: numeric, s implied, no suffix.

Take a look at these entries with their results.
>>> reported("CCn1c(SC)nnc1-c1nn(C)c2c1CN(C(=O)CCc1ccccc1)CC2")
798
>>> reported("CC(=O)Nc1ccc(C2(C(=O)NCc3ccccc3Cl)CCC2)cc1")
802
>>> reported("O=C(C1CC1)N1CCc2sc(S(=O)(=O)NCc3ccc4c(c3)OCO4)cc2C1")
812

Now look at this one.
RP-LC retention time for COc1cccc(-n2c(N3CCCC(C(=O)NCC(C)C)C3)nc3ccsc3c2=O)c1 (centres undefined) ?
818

====

Items are presented alongside their recorded RP-LC retention time.
assay: gradient 5% acetonitrile 3 min, to 50% in 2 min, to 85% in 15 min, held 3 min, 100 µL/min; details: column: Zorbax Extend-C18 2.1 x 50 mm; eluents: water / acetonitrile, 0.1% formic acid
Lab book: enter the figure in s, no units written.

Worked examples follow.
>>> reported("Cc1nc(-c2cn(Cc3cccc(F)c3)nn2)no1")
748
>>> reported("CCn1ccc2c(cc(C(=O)Nc3ccc(C)cc3C)n2C)c1=O")
753
>>> reported("CN(C)C(=O)CC1CCOC2(CCN(C(=O)CCn3cnnn3)CC2)C1 (stereo not given)")
604
>>> reported("O=C(Cn1nc2n(c1=O)CCCCC2)Nc1ccc(F)c(Cl)c1")
729

Next item in the queue.
Quick one: RP-LC retention time of Cc1noc(C)c1CC(=O)NCC1Cn2cccc2C(=O)N1CC(C)C (stereo not given) ?
664

====

A collection of compounds and their measured RP-LC retention time
assay: gradient 5% acetonitrile 3 min, to 50% in 2 min, to 85% in 15 min, held 3 min, 100 µL/min; conditions: column: Zorbax Extend-C18 2.1 x 50 mm; eluents: water / acetonitrile, 0.1% formic acid
Please state the value followed by its unit.

>>> reported("Cc1ccc2nc(-c3cccc(Br)c3)c(C)c(C(=O)O)c2c1")
"694 s"

--- query ---
Which RP-LC retention time value is on record for Cn1c(C2CCN(C(=O)NCCc3ccccc3)CC2)cc(=O)n2nccc12 ?
619 s

====

assay: gradient 5% acetonitrile 3 min, to 50% in 2 min, to 85% in 15 min, held 3 min, 100 µL/min; settings: column: Zorbax Extend-C18 2.1 x 50 mm; eluents: water / acetonitrile, 0.1% formic acid
Catalogue of RP-LC retention time values
Give the value, in units of s, as a plain number.

Record request: RP-LC retention time value, item Cc1cc(C)cc(NC(=O)N(C)CC2CCOCC2)c1
776

Can you share its RP-LC retention time? I mean this compound: CCC(Oc1ccc(=O)n(-c2cc(Cl)ccc2C)n1)C(=O)NCCOC (centres undefined)
698

====

Consider the following compounds and their measured RP-LC retention time readings.
test: gradient 5% acetonitrile 3 min, to 50% in 2 min, to 85% in 15 min, held 3 min, 100 µL/min; details: column: Zorbax Extend-C18 2.1 x 50 mm; eluents: water / acetonitrile, 0.1% formic acid

>>> reported("CCOC(=O)c1noc2ncnc(Nc3cc(C)ccc3OC)c12")
"1060 s"
>>> reported("O=C1[C@H](Cc2ccc(O)cc2)N2C(=O)CCN(C(=O)NCc3ccccc3)[C@H]2CN1Cc1cccc2ccccc12")
"847 s"
>>> reported("Cn1nccc1-c1cccc(-c2noc(-c3ccsc3)n2)c1")
"1020 s"
>>> reported("Cc1ccn2c(Nc3ccc4c(c3)OCCO4)c(-c3ccc(N(C)C)cc3)nc2c1")
"734 s"
>>> reported("COc1ccc(N2C=C(C(=O)N3CCOCC3)S(=O)(=O)c3ccc(Cl)cc32)cc1Cl")
"886 s"

State the recorded RP-LC retention time for this entry: Cc1nc2ccn(Cc3ccco3)c(=O)c2cc1C(=O)NC1CCCCC1
751 s

Which RP-LC retention time value is on record for CCNC(=O)C[C@@H]1N=C(c2ccc(Cl)cc2)c2cc(OC)ccc2-n2c(C)nnc21 ?
797 s

Name the recorded RP-LC retention time for COc1cc(NC(=O)C2c3ccccc3C(=O)N3CCc4ccccc4C23)cc(OC)c1OC (centres undefined) .
776 s

====

experiment: gradient 5% acetonitrile 3 min, to 50% in 2 min, to 85% in 15 min, held 3 min, 100 µL/min; conditions: column: Zorbax Extend-C18 2.1 x 50 mm; eluents: water / acetonitrile, 0.1% formic acid
Hi, to clarify the labels: 1 covers RP-LC retention time from 800 s upward, 0 covers anything below 800 s.

Previously resolved entries follow.
>>> class_label("CN1C(=O)C2CCCCN2c2ccc(C(=O)N3CCN(Cc4ccc5c(c4)OCO5)CC3)cc21 (configuration not stated)")
0
>>> class_label("O=C(Cc1ccc(NC(=O)C2COc3ccccc3O2)cc1)NCC(F)(F)F (configuration not stated)")
0
>>> class_label("Cc1cccc(CNC2=NCCNC23CCN(S(=O)(=O)c2ccccc2C)CC3)c1")
0

For the next question, use this compound.
Reported RP-LC retention time reaches at least 800 s for CCCNC(=O)C(=O)NCC(c1ccc2c(c1)CCCN2C)N1CCCCC1 (configuration not stated) ?
0

====

experiment: gradient 5% acetonitrile 3 min, to 50% in 2 min, to 85% in 15 min, held 3 min, 100 µL/min; details: column: Zorbax Extend-C18 2.1 x 50 mm; eluents: water / acetonitrile, 0.1% formic acid
measure: RP-LC retention time (s)
Respond numerically; units are s and should not be typed.

>>> reported("CC(C)(Oc1ccc(Cl)cc1)C(=O)NCCNc1cc(-n2cccn2)ncn1")
814
>>> reported("CCC(C)NC(=O)c1nc(Nc2cccc(C)c2)c2ccccc2n1 (centres undefined)")
819
>>> reported("Cc1nnc(-c2ccc3ccn(CC(=O)Nc4ccc(F)cc4)c3c2)o1")
795
>>> reported("Cc1cc(C)n(-c2nc(CC(=O)NCc3ccc(F)cc3)cs2)n1")
854
>>> reported("O=C(NCC1CCCO1)C1CCN(c2ccc(=O)n(-c3cccc(Cl)c3)n2)CC1 (centres undefined)")
721
>>> reported("O=C(NCCN1CCOCC1)c1cc2sccc2n1Cc1ccc(Cl)cc1")
713
>>> reported("CCc1cccc(C)c1NC(=O)Cn1c(=O)c(CCC(=O)NC2CCCC2)nc2ccccc21")
844
>>> reported("COc1cccc(-c2nc(C3CC(=O)N(c4ccccc4)C3)no2)c1 (centres undefined)")
943

Which measured RP-LC retention time value corresponds to CCCCN(CC)C(=O)Cn1nc(Cc2ccncc2)c2ccccc2c1=O ?
624
